src = PubChem BioAssay (NCI)

Test system: OVCAR-3 ovarian
protocolSummary: NCI tumour cell line growth inhibition, 48 h
// label = MET if TGI is not less than 10 µM, otherwise NOT MET

Examples with answers:
compound | labelValue
CCC[CH2][Sn]([CH2]CCC)([CH2]CCC)/[C](=C/[Si](C)(C)c1ccccc1)c1ccc2c(c1)OCO2 | MET
CCOC(=O)c1c(-c2ccccc2)[n+](=O)c2cc(F)c(F)cc2n1[O-] | NOT MET
COc1cc2nc(N3CCC[C@H](NC4=CC(=O)c5ccccc5C4=O)C3)nc(N)c2cc1OC | NOT MET
Cc1cc2nc3ccccc3n2c2ccccc12 | MET
COc1cc(S(=O)(=O)Nc2nc(-c3ccc(N4C(=O)C(C)SC4c4ccccc4O)cc3)cs2)ccc1Cl (stereo not given) | MET

Then there is this compound:
Inquiry: Does C/C(=C\Cc1ccc(F)cc1)CCCCCC/C(C)=C/Cc1ccc(F)cc1 have a reported TGI of at least 10 µM?
Reply text: MET
